The next entries give measured pIC50 for EGFR (UniProt P00533).
Positions of bridges follow the written chain, without caps; N, C: chain ends. Non-standard residues stand in square brackets, D forms with d. Residues, ends and D or L forms follow the SMILES beside them. *: point of attachment. pY = N[C@@H](Cc1ccc(OP(=O)(O)O)cc1)C(=O)O; O(2-Aminobenzoyl) = Nc1ccccc1C(=O)O*
Numbers only, as −log10 of the molar value.

Compound	Value type	Quantitative readout
CC[C@H](C)[C@H](NC(=O)[C@H](CC(N)=O)NC(=O)[C@@H](N)CCC(N)=O)C(=O)N[C@@H](Cc1ccc(OP(=O)(O)O)cc1)C(=O)N[C@@H](C)C(=O)OC(=O)c1ccccc1N (H-QNI[pY]A-{O(2-Aminobenzoyl)})	pIC50	7.96
CC[C@H](C)[C@@H]1NC(=O)[C@H](CC(N)=O)NC(=O)[C@@H](N)CSSC[C@@H](C(=O)OC(=O)c2ccccc2N)NC(=O)[C@H](Cc2ccc(OP(=O)(O)O)cc2)NC1=O (H-CNI[pY]C-{O(2-Aminobenzoyl)}; disulfide 1-5)	pIC50	6.67

Query block: Give pIC50 only, for CC[C@H](C)[C@H](NC(=O)[C@H](CC(N)=O)NC(=O)[C@@H](N)CSCNC(C)=O)C(=O)N[C@@H](Cc1ccc(OP(=O)(O)O)cc1)C(=O)N[C@@H](CSCNC(C)=O)C(=O)OC(=O)c1ccccc1N , using EGFR (UniProt P00533) data.
Result block: 7.02
